Tested on: urine volume, Na^+, K^+
Test: diuresis test in rats (urine volume, Na+, K+ excretion; dose/response, ED50)
Assay type: in vivo, Male Wister rats
Conditions: p.o.; rats

MOLECULE: CC1CC(C)CN(CCCc2ccc(-c3nc4c(N)nc(N)nc4nc3N)cc2)C1 (stereo not drawn)
Na^+/K^+ quotient p.o.: 27
//
MOLECULE: CC1CCCC(C)N1CCCc1ccc(-c2nc3c(N)nc(N)nc3nc2N)cc1 (stereo not drawn)
Na^+/K^+ quotient p.o.: 8
//
MOLECULE: Nc1nc(N)c2nc(-c3ccc(CN4CCCCC4)cc3)c(N)nc2n1
Na^+/K^+ quotient p.o.: 7
//
MOLECULE: Nc1nc(N)c2nc(-c3ccccc3)c(N)nc2n1 [Triamterene, 2,4,7-triamino-6-phenylpteridine, reference compound]
Na^+/K^+ quotient p.o.: 6
//
MOLECULE: CN(C)Cc1ccc(-c2nc3c(N)nc(N)nc3nc2N)cc1
Na^+/K^+ quotient p.o.: 18
//
MOLECULE: CN(C)CCc1ccc(-c2nc3c(N)nc(N)nc3nc2N)cc1
Na^+/K^+ quotient p.o.: 6
//
MOLECULE: CN(C)CCCc1ccc(-c2nc3c(N)nc(N)nc3nc2N)cc1
Na^+/K^+ quotient p.o.: 7
//
MOLECULE: CC1CC(C)CN(Cc2ccc(-c3nc4c(N)nc(N)nc4nc3N)cc2)C1 (stereo not drawn)
Na^+/K^+ quotient p.o.: 7
//
MOLECULE: CC1CCN(Cc2ccc(-c3nc4c(N)nc(N)nc4nc3N)cc2)CC1
Na^+/K^+ quotient p.o.: 14
//
MOLECULE: CC(C)N(Cc1ccccc1)Cc1ccc(-c2nc3c(N)nc(N)nc3nc2N)cc1
Na^+/K^+ quotient p.o.: 13
//
MOLECULE: CC1CCCC(C)N1Cc1ccc(-c2nc3c(N)nc(N)nc3nc2N)cc1 (stereo not drawn)
Na^+/K^+ quotient p.o.: 15
//
MOLECULE: Nc1nc(N)c2nc(-c3ccc(CN4CCC(Cc5ccccc5)CC4)cc3)c(N)nc2n1
Na^+/K^+ quotient p.o.: 4
